# study system: C-terminal catalytic domain of MALT1 (amino acid residues 329-824) (Homo sapiens)
# Sequence (Q9UDY8 329-824): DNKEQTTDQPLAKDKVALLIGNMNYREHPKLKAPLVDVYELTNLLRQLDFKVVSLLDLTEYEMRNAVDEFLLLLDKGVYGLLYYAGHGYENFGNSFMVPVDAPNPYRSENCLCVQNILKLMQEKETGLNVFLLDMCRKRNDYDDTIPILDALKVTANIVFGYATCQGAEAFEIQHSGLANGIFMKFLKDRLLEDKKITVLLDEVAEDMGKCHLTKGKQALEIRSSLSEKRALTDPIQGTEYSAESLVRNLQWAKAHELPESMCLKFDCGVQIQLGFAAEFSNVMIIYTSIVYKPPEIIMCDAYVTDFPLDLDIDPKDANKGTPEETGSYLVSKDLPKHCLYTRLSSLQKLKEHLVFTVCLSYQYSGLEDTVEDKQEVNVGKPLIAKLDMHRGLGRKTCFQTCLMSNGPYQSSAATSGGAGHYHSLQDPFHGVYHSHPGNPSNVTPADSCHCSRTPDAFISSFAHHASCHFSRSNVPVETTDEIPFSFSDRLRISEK
Label key: label 1 means IC50 under 40 nM; label 0 means IC50 of 40 nM or more.

C[C@@H]1C[C@H](C(=O)c2cn(C)c3nc(-n4nccn4)c(Cl)cc23)CCN1c1ccc(F)cc1N (racemic) = label 1
CC(=O)N1CC(n2cc(C(=O)C3C[C@@H](C)N(c4ncc(F)cc4I)[C@H](C)C3)c3cc(Cl)c(-n4nccn4)nc32)C1 (stereo partly drawn) = label 1
C[C@@H]1CC(C(=O)c2cn(C)c3nc(-n4nccn4)c(Cl)cc23)C[C@@H](C)N1c1ncc(F)cc1I (stereo partly drawn) = label 1

*Q* Just wondering, is IC50 of `O=C(c1cnn(-c2cccc3c(=O)[nH]ccc23)c1C(F)(F)F)c1cn(C2CCC2)c2nc(-n3nccn3)c(Cl)cc12` below 40 nM?
*A* label 0

*Q* Just wondering, is IC50 of C[C@@H]1CC(C(=O)c2cn(C3CCOCC3)c3nc(-n4nccn4)c(Cl)cc23)C[C@@H](C)N1c1ncc(F)cc1I (stereo partly drawn) below 40 nM?
*A* label 0

*Q* Just wondering, is IC50 of `Cn1cc(C(=O)c2cnn(-c3cccn4c(=O)cccc34)c2C(F)(F)F)c2cc(Cl)c(-n3nccn3)nc21` below 40 nM?
*A* label 1
